Target: T1, IFN-αF (human, UniProt P01568 24-189)
T1 construct: Recombinant, HEK293; also called IFN-α21
T1 chain: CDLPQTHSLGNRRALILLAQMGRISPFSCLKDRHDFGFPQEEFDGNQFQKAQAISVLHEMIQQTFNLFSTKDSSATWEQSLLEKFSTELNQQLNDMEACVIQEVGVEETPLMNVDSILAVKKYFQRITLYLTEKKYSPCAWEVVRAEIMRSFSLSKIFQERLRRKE
Experiment: ProteOn SPR, cell supernatant;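 further: each binding measurement used just a single antigen concentration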
pKd: −log10 of the molar value.

{"BINDER": "IFWM3397 (antibody, IgG1, V domains shown, mAb; IgG1/kappa said of the parent and of selected mAbs; also called IFWB3132) VH: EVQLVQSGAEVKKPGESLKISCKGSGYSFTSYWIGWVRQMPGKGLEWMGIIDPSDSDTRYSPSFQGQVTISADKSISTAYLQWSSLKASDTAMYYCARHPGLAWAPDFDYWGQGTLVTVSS VL: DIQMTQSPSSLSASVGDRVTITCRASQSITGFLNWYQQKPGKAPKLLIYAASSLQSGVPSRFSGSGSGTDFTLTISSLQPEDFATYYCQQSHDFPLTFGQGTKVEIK", "pKd": 10.55}
{"BINDER": "IFWM3384 (antibody, IgG1, V domains shown, mAb; IgG1/kappa said of the parent and of selected mAbs; also called IFWB3119) VH: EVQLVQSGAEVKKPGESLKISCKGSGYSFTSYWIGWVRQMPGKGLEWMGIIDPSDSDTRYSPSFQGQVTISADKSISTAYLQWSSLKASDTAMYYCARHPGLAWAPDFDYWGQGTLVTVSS VL: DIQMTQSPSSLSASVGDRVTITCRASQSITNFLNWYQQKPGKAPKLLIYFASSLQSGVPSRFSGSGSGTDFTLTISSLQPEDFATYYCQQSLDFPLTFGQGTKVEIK", "pKd": 10.48}
{"BINDER": "IFWM3395 (antibody, IgG1, V domains shown, mAb; IgG1/kappa said of the parent and of selected mAbs; also called IFWB3130) VH: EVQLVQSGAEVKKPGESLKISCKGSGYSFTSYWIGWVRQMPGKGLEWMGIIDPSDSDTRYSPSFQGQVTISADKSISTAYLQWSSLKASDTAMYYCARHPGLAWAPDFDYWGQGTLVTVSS VL: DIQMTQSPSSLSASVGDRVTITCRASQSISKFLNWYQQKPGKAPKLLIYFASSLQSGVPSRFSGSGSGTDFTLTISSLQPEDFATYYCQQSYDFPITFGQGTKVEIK", "pKd": 9.99}
